Target: E. coli topoisomerase IV (Escherichia coli, UniProt P0AFI2+P20083)
Construct: purchased Inspiralis, Norwich, UK
Assay: E. coli topoisomerase IV relaxation assay
Type: biochemical
Conditions: relaxation assay
parameter: Inhibition of topoisomerase IV (in words)

{"compound": "Cc1[nH]c(C(=O)Nc2nc3c(OCc4ccccc4)cc(C(=O)N4CCN(c5cc6c(cc5F)c(=O)c(C(=O)O)cn6C5CC5)CC4)cc3s2)c(Cl)c1Cl", "systemUnderTest": "E. coli topoisomerase IV (Escherichia coli, UniProt P0AFI2+P20083)", "observedMeasurement": "lack of activity"}
{"compound": "Cc1[nH]c(C(=O)Nc2nc3ccc(C(=O)NCCOCCN4CCN(c5cc6c(cc5F)c(=O)c(C(=O)O)cn6C5CC5)CC4)cc3s2)c(Cl)c1Cl.Cl [Compound 11a]", "systemUnderTest": "E. coli topoisomerase IV (Escherichia coli, UniProt P0AFI2+P20083)", "observedMeasurement": "lack of activity"}

====

Tested on: K. pneumoniae ATCC 10031
Test: MIC broth microdilution, K. pneumoniae
Type: cell-based
Details: Klebsiella pneumoniae, ATCC10031, read-out: MIC K. pneumoniae ATCC #; molar conversion in parentheses

{"chemicalSmiles": "Cc1[nH]c(C(=O)Nc2nc3c(OCc4ccccc4)cc(C(=O)N4CCN(c5cc6c(cc5F)c(=O)c(C(=O)O)cn6C5CC5)CC4)cc3s2)c(Cl)c1Cl", "measurementUnit": "µM", "relationOperator": ">", "MIC": 81}
{"chemicalSmiles": "Cc1[nH]c(C(=O)Nc2nc3ccc(C(=O)NCCC(=O)N4CCN(c5cc6c(cc5F)c(=O)c(C(=O)O)cn6C5CC5)CC4)cc3s2)c(Cl)c1Cl", "measurementUnit": "µM", "relationOperator": "=", "MIC": 10.6}
{"chemicalSmiles": "Cc1[nH]c(C(=O)Nc2nc3ccc(C(=O)NCC(=O)N4CCN(c5cc6c(cc5F)c(=O)c(C(=O)O)cn6C5CC5)CC4)cc3s2)c(Cl)c1Cl", "measurementUnit": "µM", "relationOperator": "=", "MIC": 5.4}

====

System: E. coli MG1655 GyrA S83L, D87N ParC S80I, E84G
Assay: microbe, parasite or virus in culture
Assay type: cell-based, Escherichia coli
Conditions: Escherichia coli, MG1655, read-out: Minimum Inhibitory Concentration E. coli MG# GyrA S83L, D87N ParC S80I, E84G
Each entry below carries its reported MIC.

{"compound": "Cc1[nH]c(C(=O)Nc2nc3c(OCc4ccccc4)cc(C(=O)NCCOCCN4CCN(c5cc6c(cc5F)c(=O)c(C(=O)O)cn6C5CC5)CC4)cc3s2)c(Cl)c1Cl.Cl [Compound 11b]", "relationOperator": "=", "MIC (µM)": 4.56}
{"compound": "Cc1[nH]c(C(=O)Nc2nc3c(OCc4ccccc4)cc(C(=O)N4CCN(c5cc6c(cc5F)c(=O)c(C(=O)O)cn6C5CC5)CC4)cc3s2)c(Cl)c1Cl", "relationOperator": ">", "MIC (µM)": 81}
{"compound": "Cc1[nH]c(C(=O)Nc2nc3ccc(C(=O)NCCOCCN4CCN(c5cc6c(cc5F)c(=O)c(C(=O)O)cn6C5CC5)CC4)cc3s2)c(Cl)c1Cl.Cl [Compound 11a]", "relationOperator": "=", "MIC (µM)": 10.4}

Origin of values: paper PMC7822030
